- measurementTarget: HER2 (Homo sapiens, UniProt P04626)
- Construct: purchased Carna Biosciences, Inc; host or cells: insect cell expression system
- Sequence (P04626 23-1255): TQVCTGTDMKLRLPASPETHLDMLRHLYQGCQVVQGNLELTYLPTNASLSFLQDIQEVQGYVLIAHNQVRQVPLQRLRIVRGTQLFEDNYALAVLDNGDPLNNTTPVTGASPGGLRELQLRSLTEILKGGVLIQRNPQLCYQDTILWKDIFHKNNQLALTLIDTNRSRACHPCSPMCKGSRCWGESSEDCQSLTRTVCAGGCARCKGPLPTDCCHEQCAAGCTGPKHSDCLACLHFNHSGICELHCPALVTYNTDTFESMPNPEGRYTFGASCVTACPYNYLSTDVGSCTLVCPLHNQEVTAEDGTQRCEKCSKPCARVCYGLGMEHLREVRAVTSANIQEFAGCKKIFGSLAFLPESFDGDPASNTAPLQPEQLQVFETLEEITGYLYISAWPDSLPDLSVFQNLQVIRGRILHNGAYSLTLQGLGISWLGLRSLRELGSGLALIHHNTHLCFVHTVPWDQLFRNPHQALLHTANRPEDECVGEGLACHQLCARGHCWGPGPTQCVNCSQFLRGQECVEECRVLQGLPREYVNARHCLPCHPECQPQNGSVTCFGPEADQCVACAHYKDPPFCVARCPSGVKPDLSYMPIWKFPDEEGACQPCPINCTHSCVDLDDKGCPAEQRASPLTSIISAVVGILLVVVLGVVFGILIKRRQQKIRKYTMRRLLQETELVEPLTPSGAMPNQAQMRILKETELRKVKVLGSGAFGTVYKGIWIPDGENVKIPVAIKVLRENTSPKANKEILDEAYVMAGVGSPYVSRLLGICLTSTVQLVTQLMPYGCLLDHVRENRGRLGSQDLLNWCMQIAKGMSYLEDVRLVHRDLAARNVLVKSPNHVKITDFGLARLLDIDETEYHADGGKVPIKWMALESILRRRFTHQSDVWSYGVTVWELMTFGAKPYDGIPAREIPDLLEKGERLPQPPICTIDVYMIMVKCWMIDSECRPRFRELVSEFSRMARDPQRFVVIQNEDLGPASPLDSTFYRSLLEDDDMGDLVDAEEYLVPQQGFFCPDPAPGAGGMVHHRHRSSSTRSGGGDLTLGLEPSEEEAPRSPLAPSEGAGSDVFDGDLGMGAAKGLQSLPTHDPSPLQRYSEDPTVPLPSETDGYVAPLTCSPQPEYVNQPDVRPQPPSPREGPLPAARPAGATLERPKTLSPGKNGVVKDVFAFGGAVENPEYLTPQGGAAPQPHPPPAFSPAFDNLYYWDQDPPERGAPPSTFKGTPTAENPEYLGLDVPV
- assayDetails: Enzyme inhibitory activity on HER2 (time resolution fluorescence, biotinylated poly-Glu-Tyr substrate)
- Type: biochemical
- reportedConditions: enzyme reaction at room temperature for 60 minutes
experimentalEndpoint: IC50 (nM)
Express your answer in nM, writing the number without its unit.

# lookup: `CC#C/C(=N\OC[C@@H](COC)NC)c1ccc2ncnc(Nc3ccc(S(=O)(=O)c4ccccc4)cc3)c2c1` on HER2 (Homo sapiens, UniProt P04626), IC50 = 13

Per the reported HER2 (Homo sapiens, UniProt P04626) data, `CC#C/C(=N\OC[C@@H]1COCCN1)c1ccc2ncnc(Nc3ccc(OCc4ccccn4)c(Cl)c3)c2c1` has IC50 of 15

HER2 (Homo sapiens, UniProt P04626) assay, compound `CC#C/C(=N\OCCNC[C@@H]1CCCO1)c1ccc2ncnc(Nc3ccc(OCc4ccccn4)c(Cl)c3)c2c1` , recorded IC50 = 14

HER2 (Homo sapiens, UniProt P04626) IC50 of `CC#C/C(=N\OCCNC)c1ccc2ncnc(Nc3ccc(Oc4ccc(C)nc4)c(C)c3)c2c1` is 14

---

Give IC50 for every item shown.
- measurementTarget: EGFR (Homo sapiens, UniProt P00533)
- Construct: purchased Carna Biosciences, Inc; host or cells: insect cell expression system
- Sequence (P00533 25-1210): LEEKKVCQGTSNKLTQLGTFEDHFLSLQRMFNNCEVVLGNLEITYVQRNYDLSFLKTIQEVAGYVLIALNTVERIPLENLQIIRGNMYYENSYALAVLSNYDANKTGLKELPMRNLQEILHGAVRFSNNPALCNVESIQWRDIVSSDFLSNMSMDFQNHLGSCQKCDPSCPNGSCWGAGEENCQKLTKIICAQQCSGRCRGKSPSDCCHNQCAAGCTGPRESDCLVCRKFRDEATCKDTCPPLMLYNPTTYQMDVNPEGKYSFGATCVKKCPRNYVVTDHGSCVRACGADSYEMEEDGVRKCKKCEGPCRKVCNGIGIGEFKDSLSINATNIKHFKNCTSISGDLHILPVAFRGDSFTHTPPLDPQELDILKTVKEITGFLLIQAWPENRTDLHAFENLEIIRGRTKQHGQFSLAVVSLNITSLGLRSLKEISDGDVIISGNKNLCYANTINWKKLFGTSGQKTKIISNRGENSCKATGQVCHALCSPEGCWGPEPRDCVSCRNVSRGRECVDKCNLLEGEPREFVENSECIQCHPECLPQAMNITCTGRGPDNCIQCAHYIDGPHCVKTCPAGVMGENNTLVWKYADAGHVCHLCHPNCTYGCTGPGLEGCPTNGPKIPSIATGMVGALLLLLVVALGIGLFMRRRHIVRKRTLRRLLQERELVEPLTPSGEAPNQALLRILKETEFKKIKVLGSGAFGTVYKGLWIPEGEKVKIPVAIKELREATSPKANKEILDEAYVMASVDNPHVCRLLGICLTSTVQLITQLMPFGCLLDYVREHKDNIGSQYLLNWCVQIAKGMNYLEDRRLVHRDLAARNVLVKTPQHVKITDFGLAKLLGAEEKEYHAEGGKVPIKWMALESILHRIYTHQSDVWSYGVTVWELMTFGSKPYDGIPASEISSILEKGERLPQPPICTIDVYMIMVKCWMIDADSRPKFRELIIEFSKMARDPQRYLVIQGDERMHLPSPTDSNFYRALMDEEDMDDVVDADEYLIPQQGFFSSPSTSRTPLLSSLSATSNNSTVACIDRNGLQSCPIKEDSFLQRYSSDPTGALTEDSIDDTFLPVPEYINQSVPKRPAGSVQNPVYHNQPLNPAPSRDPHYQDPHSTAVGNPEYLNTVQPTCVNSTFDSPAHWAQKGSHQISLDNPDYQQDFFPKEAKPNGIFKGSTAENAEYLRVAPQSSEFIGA
- assayDetails: Enzyme inhibitory activity on EGFR (time resolution fluorescence, biotinylated poly-Glu-Tyr substrate)
- Format: biochemical
- reportedConditions: EGFR purified from insect cell expression system; ATP solution 125 μM; room temperature, 60 minutes
# value in nM; strip the unit string

# IC50 of CC#CC(=NOCC1CNCCN1)c1ccc2ncnc(Nc3ccc(OCc4cccc(F)c4)c(Cl)c3)c2c1 (stereo not shown) [VIII-103] = 3.9

Measured IC50, CC#CC(=NOCCNC(=NC#N)NC)c1ccc2ncnc(Nc3ccc(OCc4cccc(F)c4)c(Cl)c3)c2c1 [VIII-58] : 207

Record CC#C/C(=N\OC[C@H]1CCCN1C)c1ccc2ncnc(Nc3ccc(OCc4cccc(F)c4)c(Cl)c3)c2c1 [VIII-91] . Reported IC50: 74

IC50 for CC#C/C(=N\OC[C@@H]1CCCN1CC(=O)O)c1ccc2ncnc(Nc3ccc(OCc4cccc(F)c4)c(Cl)c3)c2c1 [VIII-89] is 27

---

- measurementTarget: HER2 (Homo sapiens)
- Construct: purchased Carna Biosciences, Inc; host or cells: insect cell expression system
- assayDetails: Enzyme inhibitory activity on HER2 (time resolution fluorescence, biotinylated poly-Glu-Tyr substrate)
- Assay type: biochemical
- reportedConditions: enzyme reaction at room temperature for 60 minutes
Could you please report measured IC50 for the items listed next?
Express your answer in nM, writing the number without its unit.

// sample `CC#C/C(=N\OC[C@H]1CNC[C@@H](C)O1)c1ccc2ncnc(Nc3ccc(OCc4ccccn4)c(Cl)c3)c2c1` , its IC50 was 5.8

Entry `CC#C/C(=N\OC[C@H]1CCCN1CCO)c1ccc2ncnc(Nc3ccc(OCc4ccccn4)c(Cl)c3)c2c1` , IC50 reported as 19

Notebook: `CC#C/C(=N\OCC(N)=O)c1ccc2ncnc(Nc3ccc(OCc4cccc(F)c4)c(Cl)c3)c2c1` , IC50 read as 217

The value of IC50 measured for the molecule `CC#C/C(=N\OCC(=O)NCCN(C)C)c1ccc2ncnc(Nc3ccc(OCc4cccc(F)c4)c(Cl)c3)c2c1` turned out to be 10

What the record says about `CC#C/C(=N\OC[C@@H]1C[C@H](O)CN1)c1ccc2ncnc(Nc3ccc(OCc4ccccn4)c(Cl)c3)c2c1` : IC50 is 4.3

For record `CC#C/C(=N\OC[C@H]1CCCN1C)c1ccc2ncnc(Nc3ccc(OCc4ccccn4)c(Cl)c3)c2c1` the listed IC50 is 3.8

// IC50 lookup, molecule = `CNCCO/N=C(\C#CCOC)c1ccc2ncnc(Nc3ccc(OCc4cccc(F)c4)c(Cl)c3)c2c1` , result: 38

Form: molecule = `CCCC#CC(=NOCCNC)c1ccc2ncnc(Nc3ccc(OCc4cccc(F)c4)c(Cl)c3)c2c1` ; IC50 = 35

// IC50 value for `CC#C/C(=N\OCCN1CCNC(=O)C1)c1ccc2ncnc(Nc3ccc4c(cnn4Cc4cccc(F)c4)c3)c2c1` : 20

Entry `CC#C/C(=N\OCCNC[C@@H](C)CO)c1ccc2ncnc(Nc3ccc(OCc4ccccn4)c(Cl)c3)c2c1` , IC50 reported as 3.8

Lab book: IC50 of `CC#C/C(=N\OC[C@@H]1CCCN1CCO)c1ccc2ncnc(Nc3ccc(OCc4ccccn4)c(Cl)c3)c2c1` noted as 18

Lab book: IC50 of CC#C/C(=N\OCC1COCCN1)c1ccc2ncnc(Nc3ccc(COc4cccc(F)c4)c(Cl)c3)c2c1 (centres unmarked) [VIII-220] noted as 449

According to the records, this molecule `CC#C/C(=N\OCCCNC)c1ccc2ncnc(Nc3ccc(OCc4ccccn4)c(Cl)c3)c2c1` displays IC50 of 13

Value of IC50 reported for the molecule `COCC#C/C(=N\OC[C@@H]1COCCN1)c1ccc2ncnc(Nc3ccc(S(=O)(=O)c4ccccc4)cc3)c2c1` is 30
